# targetOrSystem: Galactokinase (Homo sapiens) (UniProt P51570)
# Sequence (P51570 whole entry, looked up): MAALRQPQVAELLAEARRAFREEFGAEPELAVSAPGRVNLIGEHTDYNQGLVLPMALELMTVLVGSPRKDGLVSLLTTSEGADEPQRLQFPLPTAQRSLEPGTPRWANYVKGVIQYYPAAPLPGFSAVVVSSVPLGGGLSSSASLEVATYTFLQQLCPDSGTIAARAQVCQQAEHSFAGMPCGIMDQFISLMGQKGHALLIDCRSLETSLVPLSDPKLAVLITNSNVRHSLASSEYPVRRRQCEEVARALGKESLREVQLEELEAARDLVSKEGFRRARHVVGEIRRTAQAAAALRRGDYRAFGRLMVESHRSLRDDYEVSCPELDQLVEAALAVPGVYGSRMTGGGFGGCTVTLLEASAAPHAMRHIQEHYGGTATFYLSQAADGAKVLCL
# runDescription: Confirmation Assay for Inhibitors of Human Galactokinase (GALK): SAR round 2
# details: Recombinant GALK, Kinase-Glo ATP depletion luminescence; series mostly up to 57.5 µM
Inconclusive results are not listed. Calls of active or inactive are those of the source. Calls follow the shape of the dose curve; as a rule, active = well fitted inhibition curve with a large enough effect; inconclusive = small, poorly fitted or top-dose-only effect; inactive = flat fitted curve, though single readings scatter.
Write down the outcome that applies. Available outcomes: active, inactive

compound | targetOrSystem | classification
Cc1ccc(N(CC(=O)Nc2ccc(OC(F)(F)F)cc2)S(=O)(=O)c2c(C)noc2C)cc1 | Galactokinase (Homo sapiens) (UniProt P51570) | inactive
CC(C)c1nc(Nc2nc3ccccc3o2)nc2c1CCCC2 | Galactokinase (Homo sapiens) (UniProt P51570) | inactive
O=C1CCCC2=C1C(c1ccncc1Cl)N=C(Nc1nc3ccccc3o1)N2 (centres undefined) | Galactokinase (Homo sapiens) (UniProt P51570) | active
O=C1CCCC2=C1C(c1ccccc1Cl)N=C(Nc1nc3ccccc3o1)N2 (centres undefined) | Galactokinase (Homo sapiens) (UniProt P51570) | active
Cc1nc(Nc2nc3ccccc3o2)nc2c1CCCC2 | Galactokinase (Homo sapiens) (UniProt P51570) | inactive

Incoming: Hi team, can someone confirm the assay call for O=C1CCCC2=C1C(c1ccccc1)N=C(Nc1nc3ccccc3o1)N2 (centres undefined) ?
Outgoing: active

Incoming: Hi team, can someone confirm the assay call for O=C1CCCC2=C1C(c1cccc(Oc3ccccc3)c1)N=C(Nc1nc3ccccc3o1)N2 (centres undefined) ?
Outgoing: inactive

Incoming: Hi team, can someone confirm the assay call for CC(C)(C)C(=O)Nc1ccc2c(c1)C(=O)C(=O)c1ccccc1-2 ?
Outgoing: active

Incoming: Hi team, can someone confirm the assay call for Cc1ccc(C2N=C(Nc3nc4ccccc4o3)NC3=C2C(=O)CCC3)s1 (centres undefined) ?
Outgoing: active
